# Method summary: MRC-5 cytotoxicity
# Assay type: cell-based
# Condition label: human, MRC-5 cells; S1 Data
Some compounds, each annotated with its measured CC50.

1. Cn1cc(C(=O)Nc2nc3ccc(C#N)cc3n2CC(F)(F)F)cn1 [Compound 36]
56.1 µM
2. CCN(CC)CCCn1c(NC(=O)c2ccnn2C)nc2ccc(C#N)cc21 [Compound 52]
> 64 µM

Ask | Quick check: CC50 of O=C(Cc1ccc(Cl)cc1)Nc1nc2cc(F)ccc2[nH]1 [Compound 18, Fc1ccc([nH]c(NC(Cc2ccc(Cl)cc2)=O)n3)c3c1] ?
Reply | > 64 µM

Ask | Recorded CC50 for O=C(Cc1ccc(F)cc1)Nc1nc2ccc(F)cc2n1CC1CC1 [Compound 21] , please?
Reply | 17.4 µM

Ask | So what does the record say about CC50 for O=C(Cc1ccc(Cl)cc1)Nc1nc2ccc(F)cc2n1CC(F)(F)F [Compound 23] ?
Reply | > 64 µM
